target: HCV NS3/4A protease A156T mutant (Hepatitis C virus genotype 1b, UniProt P26663, A1182T); test: HCV NS3/4A protease time-resolved fluorescence (TRF) assay, Ki against A156T mutant; assay type: biochemical; details: NS3/4A protease TRF assay, A156T mutant enzyme 0.4 nM; read-out: IC50 [gt-1b A156T]
attribute measured: IC50 (nM)
Record the value in nM, omitting the unit from your answer.

## Task Tell me measured IC50 for COc1ccc2nc(C(F)F)c3c(c2n1)CC[C@]1(C[C@H]2C(=O)N[C@]4(C(=O)NS(=O)(=O)C5(C)CC5)C[C@H]4/C=C\CCCCC[C@H](NC(=O)O[C@@H]4C[C@@H]5C[C@@H]5C4)C(=O)N2C1)O3 please.
## Result 0.182

## Task Please give measured IC50 of the following entry: COc1cc(Cl)c2nc(C(F)(F)F)c3c(c2c1)CC[C@]1(C[C@H]2C(=O)N[C@]4(C(=O)NS(=O)(=O)C5(C)CC5)C[C@H]4/C=C\CCCCC[C@H](NC(=O)OC(C)(C)C)C(=O)N2C1)O3
## Result 0.496

## Task Fill in IC50 for record CCc1nc2ccc(OC)cc2c2c1O[C@]1(CC2)C[C@H]2C(=O)N[C@]3(C(=O)NS(=O)(=O)C4(C)CC4)C[C@H]3/C=C\CCCCC[C@H](NC(=O)O[C@H](C)C3CC3)C(=O)N2C1
## Result 0.121

## Task Report measured IC50; entry is COc1ccc2nc(C(F)(F)F)c3c(c2c1)CC[C@]1(C[C@H]2C(=O)N[C@]4(C(=O)NS(=O)(=O)C5(C)CC5)C[C@H]4/C=C\CCCCC[C@H](NC(=O)OC4(C)CCC4)C(=O)N2C1)O3
## Result 0.338
